System: Salmonella typhimurium strains TA 98, TA 100, TA 1535, TA 1537, TA 1538, TA 1978
Assay: Ames assay (spot test), revertant colonies
Format: cell-based
Conditions: strain TA 100, +S9
observation type: Mean number of revertant colonies per plate, TA 100 +S9 (colonies per plate)

[
  {
    "molecule": "Clc1ccc(N2CC2c2ccccc2Cl)cc1 (stereo not shown)",
    "display unit": "colonies per plate",
    "experimental result": 58.3
  },
  {
    "molecule": "Clc1ccc(N2CC2c2ccccc2Cl)cc1Cl (stereo not shown)",
    "display unit": "colonies per plate",
    "experimental result": 56.0
  },
  {
    "molecule": "Clc1ccccc1C1CN1c1ccc(Br)cc1 (stereo not shown)",
    "display unit": "colonies per plate",
    "experimental result": 61.7
  },
  {
    "molecule": "CC(=O)Nc1ccc2c(c1)Cc1ccccc1-2 [AAF, 2-acetylaminofluorene, reference compound]",
    "display unit": "colonies per plate",
    "experimental result": 78.0
  }
]
